# System: P12-Ichikawa
# run.description: cell viability relative to DMSO control; higher = less cytotoxic
# condition.notes: RPMI 5 mM glucose + 10% FBS; 48 h; 1.71 µM
metric.name: cell viability (%)
Write it as a number; the unit % goes unstated.

Examples from the recorded data:
Incoming: // fetch cell viability given entry Cc1ncc([N+](=O)[O-])n1CCO
Outgoing: 124

Incoming: // fetch cell viability given entry CN(C)c1ccc(Nc2nc(N)n(C(=O)c3c(F)cccc3F)n2)cc1
Outgoing: 137

Incoming: // fetch cell viability given entry CCCCN(CCCC)C(=O)CN1C[C@H](c2ccc3c(c2)OCO3)[C@@H](C(=O)O)[C@@H]1c1ccc(OC)cc1
Outgoing: 118

Now look at this entry.
Incoming: // fetch cell viability given entry CCOC1=CC(=CC=C1C/2=N/[C@@](C)(C3=CC=C(Cl)C=C3)[C@](C)(N2C(=O)N4CCN(CC4)CC(=O)N5CCOCC5)C6=CC=C(Cl)C=C6)C(C)(C)C
Outgoing: 103
